# Tested on: CYP2B6
# experiment-notes: Chemical inhibition of metaxalone turnover in human liver microsomes, CYP2B6 inhibitor thio-TEPA
# test-parameters: both, human, microsomes, pH 7.4, Inhibition of metaxalone disappearance (% inhibition of turnover), 0.75 μM metaxalone
assay-metric: inhibition at 60 min (%)
Unit % implied. Number only.

Query S=P(N1CC1)(N1CC1)N1CC1 [thio-TEPA] yields inhibition at 60 min of 58.3

* * *

# measured-on: UniProtKB P11712
# experiment-notes: in vitro
# test-parameters: both, microsomes, pH 7.4, Inhibition of metaxalone disappearance (% inhibition of turnover), 7.5 μM metaxalone
assay-metric: inhibition at 60 min (%)
Unit % implied. Number only.

Query Nc1ccc(S(=O)(=O)Nc2ccnn2-c2ccccc2)cc1 yields inhibition at 60 min of 52.8

* * *

# measured-on: CYP1A2 (Homo sapiens)
# experiment-notes: Chemical inhibition of metaxalone turnover in human liver microsomes, CYP1A2 selective inhibitor furafylline
# test-parameters: both, pooled human liver microsomes, pH 7.4, probe metaxalone 7.5 μM (disappearance)
assay-metric: inhibition at 60 min (%)
Unit % implied. Number only.

Query Cc1nc2c([nH]1)c(=O)n(C)c(=O)n2Cc1ccco1 yields inhibition at 60 min of 80.6

* * *

# measured-on: UniProt P10632
# experiment-notes: Chemical inhibition of metaxalone turnover in human liver microsomes, CYP2C8 inhibitor quercetin
# test-parameters: both, human, pooled human liver microsomes, pH 7.4, probe metaxalone 0.75 μM (disappearance)
assay-metric: inhibition at 60 min (%)
Unit % implied. Number only.

For the compound O=c1c(O)c(-c2ccc(O)c(O)c2)oc2cc(O)cc(O)c12 [quercetin] , the measured inhibition at 60 min on UniProt P10632 was 77.2

* * *

# Tested on: CYP2B6
# experiment-notes: Chemical inhibition of metaxalone turnover in human liver microsomes, CYP2B6 inhibitor thio-TEPA
# test-parameters: both, human, microsomes, pH 7.4, Inhibition of metaxalone disappearance (% inhibition of turnover), 7.5 μM metaxalone
assay-metric: inhibition at 60 min (%)
Unit % implied. Number only.

Query S=P(N1CC1)(N1CC1)N1CC1 yields inhibition at 60 min of 43.3

* * *

# measured-on: CYP2C9 (Homo sapiens, UniProt P11712)
# Sequence (P11712 whole entry): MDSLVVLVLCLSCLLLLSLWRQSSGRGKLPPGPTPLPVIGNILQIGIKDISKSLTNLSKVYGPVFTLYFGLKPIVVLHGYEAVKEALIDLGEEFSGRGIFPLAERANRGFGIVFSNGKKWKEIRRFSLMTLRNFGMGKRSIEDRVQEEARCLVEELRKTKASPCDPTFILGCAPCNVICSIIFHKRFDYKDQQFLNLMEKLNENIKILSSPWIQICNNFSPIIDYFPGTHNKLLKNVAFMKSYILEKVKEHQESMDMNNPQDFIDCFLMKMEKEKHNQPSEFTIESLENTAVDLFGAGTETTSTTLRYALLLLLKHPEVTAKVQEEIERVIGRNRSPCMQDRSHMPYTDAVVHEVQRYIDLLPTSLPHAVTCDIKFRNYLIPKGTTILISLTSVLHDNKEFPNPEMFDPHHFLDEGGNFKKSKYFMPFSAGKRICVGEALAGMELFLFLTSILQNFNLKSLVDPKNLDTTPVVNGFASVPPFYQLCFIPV
# experiment-notes: in vitro
# test-parameters: both, microsomes, pH 7.4, Inhibition of metaxalone disappearance (% inhibition of turnover), 0.75 μM metaxalone
assay-metric: inhibition at 60 min

Query Nc1ccc(S(=O)(=O)Nc2ccnn2-c2ccccc2)cc1 [sulfaphenazole] yields inhibition at 60 min of 81.4%

* * *

# measured-on: CYP1A2 (Homo sapiens, UniProt P05177)
# Sequence (P05177 whole entry): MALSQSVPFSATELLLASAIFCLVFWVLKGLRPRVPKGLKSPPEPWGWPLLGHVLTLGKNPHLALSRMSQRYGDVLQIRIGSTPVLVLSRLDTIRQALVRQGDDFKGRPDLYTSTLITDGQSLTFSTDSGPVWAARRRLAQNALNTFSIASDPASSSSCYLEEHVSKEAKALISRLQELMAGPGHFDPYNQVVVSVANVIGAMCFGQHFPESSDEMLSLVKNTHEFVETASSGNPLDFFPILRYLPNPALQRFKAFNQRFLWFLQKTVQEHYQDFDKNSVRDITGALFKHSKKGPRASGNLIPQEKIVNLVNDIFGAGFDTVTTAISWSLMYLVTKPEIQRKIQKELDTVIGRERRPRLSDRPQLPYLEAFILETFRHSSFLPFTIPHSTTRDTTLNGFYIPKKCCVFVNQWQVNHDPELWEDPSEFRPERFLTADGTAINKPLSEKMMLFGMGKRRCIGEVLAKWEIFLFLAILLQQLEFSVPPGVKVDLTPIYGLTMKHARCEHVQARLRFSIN
# experiment-notes: Chemical inhibition of metaxalone turnover in human liver microsomes, CYP1A2 selective inhibitor furafylline
# test-parameters: both, pooled human liver microsomes, pH 7.4, probe metaxalone 0.75 μM (disappearance)
assay-metric: inhibition at 60 min (%)
Unit % implied. Number only.

Query Cc1nc2c([nH]1)c(=O)n(C)c(=O)n2Cc1ccco1 yields inhibition at 60 min of 111

* * *

# measured-on: UniProtKB P33261
# Sequence (P33261 whole entry): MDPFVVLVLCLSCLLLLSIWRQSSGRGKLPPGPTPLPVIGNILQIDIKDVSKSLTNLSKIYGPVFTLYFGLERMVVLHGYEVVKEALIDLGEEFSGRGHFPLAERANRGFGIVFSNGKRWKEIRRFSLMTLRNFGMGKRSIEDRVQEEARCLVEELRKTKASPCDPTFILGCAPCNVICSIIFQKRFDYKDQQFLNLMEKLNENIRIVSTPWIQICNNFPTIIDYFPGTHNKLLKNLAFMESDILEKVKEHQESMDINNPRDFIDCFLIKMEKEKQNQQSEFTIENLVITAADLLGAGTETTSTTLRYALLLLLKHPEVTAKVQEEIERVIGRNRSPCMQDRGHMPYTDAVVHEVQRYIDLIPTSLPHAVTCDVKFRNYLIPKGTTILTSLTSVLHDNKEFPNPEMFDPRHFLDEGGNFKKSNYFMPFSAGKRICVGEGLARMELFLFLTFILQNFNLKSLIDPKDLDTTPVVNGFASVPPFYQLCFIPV
# experiment-notes: in vitro
# test-parameters: pooled human liver microsomes, probe S-mephenytoin 50 μM (to 4′-hydroxy mephenytoin)
assay-metric: inhibition at 30 min, 100 μM (%)
Unit % implied. Number only.

Query Cc1cc(C)cc(OCC2CNC(=O)O2)c1 (stereo not shown) yields inhibition at 30 min, 100 μM of 35.1

* * *

# measured-on: CYP2E1 (Homo sapiens, UniProt P05181)
# Sequence (P05181 whole entry): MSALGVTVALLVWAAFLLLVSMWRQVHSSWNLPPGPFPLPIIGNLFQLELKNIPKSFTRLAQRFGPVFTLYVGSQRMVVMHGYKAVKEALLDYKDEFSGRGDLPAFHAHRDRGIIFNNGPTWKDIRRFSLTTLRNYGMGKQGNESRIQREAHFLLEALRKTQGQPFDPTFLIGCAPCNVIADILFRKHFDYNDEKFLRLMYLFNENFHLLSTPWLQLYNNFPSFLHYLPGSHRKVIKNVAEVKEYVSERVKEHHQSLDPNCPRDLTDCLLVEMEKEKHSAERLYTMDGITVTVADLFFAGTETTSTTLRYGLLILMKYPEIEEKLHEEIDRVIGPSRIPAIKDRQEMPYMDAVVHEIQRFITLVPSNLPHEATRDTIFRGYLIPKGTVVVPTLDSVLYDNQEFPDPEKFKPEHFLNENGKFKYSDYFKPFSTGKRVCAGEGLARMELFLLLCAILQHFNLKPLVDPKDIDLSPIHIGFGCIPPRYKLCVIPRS
# experiment-notes: Chemical inhibition of metaxalone turnover in human liver microsomes, CYP2E1 inhibitor clomethiazole
# test-parameters: both, human, microsomes, pH 7.4, Inhibition of metaxalone disappearance (% inhibition of turnover), 0.75 μM metaxalone
assay-metric: inhibition at 60 min (%)
Unit % implied. Number only.

Query Cc1ncsc1CCCl yields inhibition at 60 min of 113

* * *

# measured-on: CYP2C8 (Homo sapiens, UniProt P10632)
# Sequence (P10632 1-490): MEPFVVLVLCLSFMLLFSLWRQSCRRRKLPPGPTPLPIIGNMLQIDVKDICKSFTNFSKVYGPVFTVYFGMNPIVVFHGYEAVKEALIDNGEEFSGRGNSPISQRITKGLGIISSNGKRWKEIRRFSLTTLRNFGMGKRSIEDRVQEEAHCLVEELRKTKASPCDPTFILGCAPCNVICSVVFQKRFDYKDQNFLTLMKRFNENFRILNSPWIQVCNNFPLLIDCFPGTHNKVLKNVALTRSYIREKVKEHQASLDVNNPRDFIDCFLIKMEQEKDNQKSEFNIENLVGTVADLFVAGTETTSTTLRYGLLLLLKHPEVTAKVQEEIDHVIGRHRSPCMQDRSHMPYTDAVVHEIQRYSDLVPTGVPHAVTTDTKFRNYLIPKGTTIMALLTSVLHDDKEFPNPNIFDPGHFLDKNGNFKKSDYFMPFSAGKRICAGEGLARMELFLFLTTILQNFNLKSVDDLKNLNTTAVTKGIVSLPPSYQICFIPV
# experiment-notes: Chemical inhibition of metaxalone turnover in human liver microsomes, CYP2C8 inhibitor quercetin
# test-parameters: both, human, pooled human liver microsomes, pH 7.4, probe metaxalone 7.5 μM (disappearance)
assay-metric: inhibition at 60 min (%)
Unit % implied. Number only.

For the compound O=c1c(O)c(-c2ccc(O)c(O)c2)oc2cc(O)cc(O)c12 , the measured inhibition at 60 min on CYP2C8 (Homo sapiens, UniProt P10632) was 84.7

* * *

# Tested on: CYP2A6
# experiment-notes: Chemical inhibition of metaxalone turnover in human liver microsomes, CYP2A6 inhibitor pilocarpine
# test-parameters: both, human, microsomes, pH 7.4, Inhibition of metaxalone disappearance (% inhibition of turnover), 0.75 μM metaxalone
assay-metric: inhibition at 60 min (%)
Unit % implied. Number only.

For the molecule CC[C@@H]1C(=O)OC[C@@H]1Cc1cncn1C [pilocarpine] , the measured inhibition at 60 min on CYP2A6 was 46.2

* * *

# Test system: CYP2A6
# experiment-notes: Chemical inhibition of metaxalone turnover in human liver microsomes, CYP2A6 inhibitor pilocarpine
# test-parameters: both, human, microsomes, pH 7.4, Inhibition of metaxalone disappearance (% inhibition of turnover), 7.5 μM metaxalone
assay-metric: inhibition at 60 min (%)
Unit % implied. Number only.

Query CC[C@@H]1C(=O)OC[C@@H]1Cc1cncn1C yields inhibition at 60 min of 50.8

Ref: patent US20080292584A1
